- Assay procedure: Cytotoxicity testing (MTT)
- Format: cell-based, human
- Test parameters: human, HK2 cells (renal epithelial cell line); HK2 cells, 48 h, MTT
Quantity measured: IC50 at 48 h (µg/mL)
All answers are understood in µg/mL, so give the number only.

Molecule: C/C(=N\NC(=S)Nc1ccc(Br)cc1)c1ccccn1 [Compound 19t]
Experimental result: 3.46
--
Molecule: S=C(N/N=C/c1ccc(Br)cn1)Nc1ccc(Br)cc1 [Compound 19k]
Experimental result: 63.9

Task item: Suppose we examine the molecule C/C(=N\NC(=S)N(C)C)c1ccccn1 [Compound 19ak] ; what IC50 at 48 h value has been reported?
Reply: 26.8

###

- Test system: A. fumigatus AF293
- Assay procedure: Antifungal susceptibility testing, microbroth dilution MIC
- Assay type: cell-based
- Test parameters: Aspergillus fumigatus, AF293, 48 h, read-out: MIC (μg/mL) against fungi AF293
Quantity measured: MIC (µg/mL)
All answers are understood in µg/mL, so give the number only.

Some entries whose results are on file:
Molecule: S=C(N/N=C/c1ccccn1)N1CCOCC1 [Compound 19ao]
Display unit: µg/mL
MIC: 8

Molecule: S=C(N/N=C(\c1ccccc1)c1ccccn1)Nc1ccccc1Br [Compound 19x]
Display unit: µg/mL
MIC: 16

Consider now this further molecule.
Task item: Suppose we examine the molecule C/C(=N\NC(=S)Nc1ccccc1)c1ccccn1 [Compound 19ac] ; what MIC value has been reported?
Reply: 16
